Sourced from patent US7713937B2

This listing pairs molecules with measured Emax.
target: human kappa opioid receptor (hKOR) (Homo sapiens); construct: expressed in transfected cells; host or cells: HEK-293 cells, transient transfection with Fugene6; test: cell-based; conditions: HEK293, read-out: hKOR Efficacy(%)
Sequence (P41145 whole entry): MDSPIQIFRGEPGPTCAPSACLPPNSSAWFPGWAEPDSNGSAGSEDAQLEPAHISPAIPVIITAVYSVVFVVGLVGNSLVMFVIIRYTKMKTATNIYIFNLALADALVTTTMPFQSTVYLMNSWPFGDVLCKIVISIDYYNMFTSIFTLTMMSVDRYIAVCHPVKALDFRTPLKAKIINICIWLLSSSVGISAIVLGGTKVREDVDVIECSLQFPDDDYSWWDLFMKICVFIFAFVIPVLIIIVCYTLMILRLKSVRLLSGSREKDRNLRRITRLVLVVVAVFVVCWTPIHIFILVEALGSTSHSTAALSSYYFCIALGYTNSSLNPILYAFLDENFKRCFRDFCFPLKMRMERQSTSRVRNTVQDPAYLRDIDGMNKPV
Square brackets hold non-standard residues; d marks the D form. Peptide text beside a SMILES is read from it. * marks the point of attachment. Homopiperazine(4-amidino) = N=C(N)N1CCCN(*)CC1; d(hArg) = N=C(N)NCCCC[C@@H](N)C(=O)O; Homopiperazinyl = C1CNCCN(*)C1; Morpholide = C1CN(*)CCO1; Inp = O=C(O)C1CCNCC1

molecule	units	Emax
CC(C)C[C@@H](NC(=O)[C@@H](Cc1ccccc1)NC(=O)[C@H](N)Cc1ccccc1)C(=O)N[C@H](CCCN)C(=O)N1CCOC(C(=O)O)C1 (stereo partly shown)	%	100
CC(C)C[C@@H](NC(=O)[C@@H](Cc1ccccc1)NC(=O)[C@H](N)Cc1ccccc1)C(=O)N[C@H](CCCN)C(=O)N1CCC(CC(N)C(=O)O)CC1 (stereo partly shown)	%	104
CC(C)C[C@@H](NC(=O)[C@@H](Cc1ccccc1)NC(=O)[C@H](N)Cc1ccccc1)C(=O)N[C@H](CCCCN)C(=O)N1CCN(C(=O)c2ccccc2)CC1	%	94
CC(C)C[C@@H](NC(=O)[C@@H](Cc1ccccc1)NC(=O)[C@H](N)Cc1ccccc1)C(=O)N[C@H](CCCCN)C(=O)N1CCC(C(=O)N2CCOCC2)CC1 [Compound (29)] (H-[dF][dF][dL][dK][Inp]-Morpholide)	%	100
CC(C)C[C@@H](NC(=O)[C@@H](Cc1ccccc1)NC(=O)[C@H](N)Cc1ccccc1)C(=O)N[C@H](CCCCN)C(=O)N1CCN(c2ccccn2)CC1	%	100
CC(C)C[C@@H](NC(=O)[C@@H](Cc1ccccc1)NC(=O)[C@H](N)Cc1ccccc1)C(=O)N[C@H](CCCCNC(=N)N)C(=O)N1CCCN(C(=N)N)CC1 [Compound (16)] (H-[dF][dF][dL][d(hArg)]-{Homopiperazine(4-amidino)})	%	96
CC(C)C[C@@H](NC(=O)[C@@H](Cc1ccccc1)NC(=O)[C@H](N)Cc1ccccc1)C(=O)N[C@H](CCCCN)C(=O)N1CCN(S(=O)(=O)N(C)C)CC1	%	101
CC(C)C[C@@H](NC(=O)[C@@H](Cc1ccccc1)NC(=O)[C@H](N)Cc1ccccc1)C(=O)N[C@H](CCCNC(=N)N)C(=O)N1CCCNCC1 [Compound (7)] (H-[dF][dF][dL][dR]-Homopiperazinyl)	%	100
CC(C)C[C@@H](NC(=O)[C@@H](Cc1ccccc1)NC(=O)[C@H](N)Cc1ccccc1)C(=O)N[C@H](CCCCN)C(=O)NCC1CCOCC1	%	99
CC(C)C[C@@H](NC(=O)[C@@H](Cc1ccccc1)NC(=O)[C@H](N)Cc1ccccc1)C(=O)N[C@H](CCCCN)C(=O)NCc1ccc(C(F)(F)F)nc1	%	95
